Tested on: SK-OV-3 ovarian
Test: NCI tumour cell line growth inhibition, 48 h
Property Name: TGI (µM)
Please give a number only; it is taken to be in µM.

See these solved cases before continuing.
O=C1C=C(Br)c2c(Br)sc(Br)c21; 64.3
CCN1c2ccccc2C(Cl)(c2ccc(N(C)C)cc2)c2ccccc21; 18.2
O=c1[nH]nc(-c2ccccc2)n1/N=C/c1c(O)ccc2ccccc12; 68.4
CO[C@@H]1/C=C(C)/C=C/[C@@H](C)/C=C(\C)C(=O)OC(/C(C)=C/C=C(\C)CNC(=O)[C@H](CO)NC=O)[C@@H](C)/C=C/C=C/[C@H](OC)CC/C=C(C)/C=C/C1 (stereo not given in full); 9.48
CC(=O)O[C@H]1CCC(C)=CCC[C@@]2(C)C(CC[C@@H]2[C@@H](C)/C=C/C(C)C)c2ccc(cc2C(=O)O)C1 (stereo not given in full); 13.8

Give its TGI value. Item: `O=C1C(Br)=CC2(C=C1Br)CCNC1=C2C(=O)c2cccnc2C1=O`
31.8

Give its TGI value. Item: C=CC1CC12C(=O)C1OC2(C)C2C(=O)c3c(O)ccc(O)c3C(=O)C12 (stereo not given)
41.2

Give its TGI value. Item: `CCc1ccc2[nH]c(O)c(-c3[nH]c4ccccc4c3N=O)c2c1`
12.1
